Experiment: Pharmacokinetics in rats after SC and IV administration
Settings: rat, in vivo; rats, SC 10 mg/kg, mean ± SD (n = 5); read-out: Cmax
Where a SMILES comes first, the peptide text is derived from it. [ ]: non-standard residue; d: D form. Arg(Me) = CNC(=N)NCCC[C@H](N)C(=O)O; Hyp = O=C(O)[C@@H]1C[C@@H](O)CN1; azaGly = NNC(=O)O
valueType: Cmax (ng/mL)
Write down the numeric answer in ng/mL and omit the unit.

Need Cmax of CC(=O)O.CNC(=N)NCCC[C@H](NC(=O)[C@H](CC(C)C)NC(=O)NNC(=O)[C@H](Cc1ccccc1)NC(=O)[C@@H](NC(=O)[C@H](CC(N)=O)NC(=O)[C@@H]1C[C@@H](O)CN1C(=O)[C@@H](Cc1ccc(O)cc1)NC(C)=O)[C@@H](C)O)C(=O)N[C@@H](Cc1c[nH]c2ccccc12)C(N)=O [API-MA] (Ac-[dY][Hyp]NTF[azaGly]L[Arg(Me)]W-NH2) , thanks.
285

---

Experiment: Single dose PK, phase 1, healthy European men
Assay type: in vivo, human
Conditions: male, human, urine, single SC 0.001 mg, only 1 subject above LLOQ, read-out: Fe (urine)
Where a SMILES comes first, the peptide text is derived from it. [ ]: non-standard residue; d: D form. Arg(Me) = CNC(=N)NCCC[C@H](N)C(=O)O; Hyp = O=C(O)[C@@H]1C[C@@H](O)CN1; azaGly = NNC(=O)O
valueType: dose excreted (%)
Write down the numeric answer in % and omit the unit.

Need dose excreted of CC(=O)O.CNC(=N)NCCC[C@H](NC(=O)[C@H](CC(C)C)NC(=O)NNC(=O)[C@H](Cc1ccccc1)NC(=O)[C@@H](NC(=O)[C@H](CC(N)=O)NC(=O)[C@@H]1C[C@@H](O)CN1C(=O)[C@@H](Cc1ccc(O)cc1)NC(C)=O)[C@@H](C)O)C(=O)N[C@@H](Cc1c[nH]c2ccccc12)C(N)=O [API-MA] (Ac-[dY][Hyp]NTF[azaGly]L[Arg(Me)]W-NH2) , thanks.
3.47

---

Experiment: Single dose PK, phase 1, healthy European men
Format: in vivo, human
Conditions: male, human, plasma, subcutaneous, 2-hour INF 1 mg, geometric mean
Where a SMILES comes first, the peptide text is derived from it. [ ]: non-standard residue; d: D form. Arg(Me) = CNC(=N)NCCC[C@H](N)C(=O)O; Hyp = O=C(O)[C@@H]1C[C@@H](O)CN1; azaGly = NNC(=O)O
valueType: AUC(0-t) (µg·h/mL)
Write down the numeric answer in µg·h/mL and omit the unit.

Need AUC(0-t) of CC(=O)O.CNC(=N)NCCC[C@H](NC(=O)[C@H](CC(C)C)NC(=O)NNC(=O)[C@H](Cc1ccccc1)NC(=O)[C@@H](NC(=O)[C@H](CC(N)=O)NC(=O)[C@@H]1C[C@@H](O)CN1C(=O)[C@@H](Cc1ccc(O)cc1)NC(C)=O)[C@@H](C)O)C(=O)N[C@@H](Cc1c[nH]c2ccccc12)C(N)=O [API-MA] (Ac-[dY][Hyp]NTF[azaGly]L[Arg(Me)]W-NH2) , thanks.
0.0437

---

Assay: Single dose PK, phase 1, healthy European men
Type: in vivo, human
Conditions: male, human, urine, sc, 2-hour INF 3 mg, geometric mean (% CV), read-out: Fe (urine)
Where a SMILES comes first, the peptide text is derived from it. [ ]: non-standard residue; d: D form. Arg(Me) = CNC(=N)NCCC[C@H](N)C(=O)O; Hyp = O=C(O)[C@@H]1C[C@@H](O)CN1; azaGly = NNC(=O)O
valueType: dose excreted (%)
Write down the numeric answer in % and omit the unit.

Need dose excreted of CC(=O)O.CNC(=N)NCCC[C@H](NC(=O)[C@H](CC(C)C)NC(=O)NNC(=O)[C@H](Cc1ccccc1)NC(=O)[C@@H](NC(=O)[C@H](CC(N)=O)NC(=O)[C@@H]1C[C@@H](O)CN1C(=O)[C@@H](Cc1ccc(O)cc1)NC(C)=O)[C@@H](C)O)C(=O)N[C@@H](Cc1c[nH]c2ccccc12)C(N)=O [API-MA] (Ac-[dY][Hyp]NTF[azaGly]L[Arg(Me)]W-NH2) , thanks.
3.94
